Cited source for all entries: paper PMC11200585

- Test system: T-47D
- protocolSummary: NCI-60 five-dose assay (breast cancer)
- Assay type: cell-based, human
- particulars: Homo sapiens, T47D, 48 h, SRB
reportedProperty: GI50 (nM)
Give bare numbers, in nM.

                               samplesmiles  valueobserved
0  COc1cc(NC2=C(Cl)C(=O)c3nc(C)ccc3C2=O)cc(OC)c1           1500
1  CCOc1ccccc1NC1=C(Cl)C(=O)c2nc(C)ccc2C1=O            467
2   COc1ccccc1NC1=C(Cl)C(=O)c2nc(C)ccc2C1=O           1370

Task: Fill in: GI50 of CCOc1ccc(NC2=C(Cl)C(=O)c3nc(C)ccc3C2=O)cc1 is ___
Output: 1010
